Tested on: MDAMB231
PROTOCOL TEXT: In vitro colorimetric cell death assay (MTT)
Assay type: cell-based
APPLIED CONDITIONS: MDAMB231 breast cancer cell line, 48 hours with compound, read-out: IC 50 Value
PROPERTY NAME: pIC50
Worth noting: pIC50 values are minus log10 of concentrations stated in mol/L.

Q: Entry N.N.[Cl][Pt][Cl] [Cisplatin] , system MDAMB231: what pIC50 was measured?
Ans: 4.31

----------
Test system: L929
PROTOCOL TEXT: In vitro colorimetric cell death assay (MTT)
Type: cell-based
APPLIED CONDITIONS: L929 fibroblast cancer cell line, 48 hours with compound, read-out: IC 50 Value
PROPERTY NAME: IC50 (µM)
Dear colleague, please return just the value in µM, with no unit written.

Q: Entry N.N.[Cl][Pt][Cl] [Cisplatin] , system L929: what IC50 was measured?
Ans: 29
